Reference source: ChEMBL document CHEMBL1154057

Tested on: Streptococcus pneumoniae
Test: Antibacterial activity against erythromycin-susceptible Streptococcus pneumoniae ATCC 49619
Quantity: MIC

Below: 6 molecules and their reported MIC.
>>> assay_result("CC[C@H]1OC(=O)[C@H](C)[C@@H](O[C@H]2C[C@@](C)(OC)[C@@H](OC(=O)NCCc3ccccc3Cl)[C@H](C)O2)[C@H](C)[C@@H](O[C@@H]2O[C@H](C)C[C@H](N(C)C)[C@H]2O)[C@@](C)(O)C[C@@H](C)CN(C)[C@H](C)[C@@H](OC(=O)NCc2ccccc2)[C@]1(C)O")
"< 0.03 µg/mL"
>>> assay_result("CC[C@H]1OC(=O)[C@H](C)[C@@H](O[C@H]2C[C@@](C)(OC)[C@@H](OC(=O)NCCc3ccccc3Cl)[C@H](C)O2)[C@H](C)[C@@H](O[C@@H]2O[C@H](C)C[C@H](N(C)C)[C@H]2O)[C@@](C)(O)C[C@@H](C)CN(C)[C@H](C)[C@@H](OC(=O)NCc2ccc(F)cc2)[C@]1(C)O")
"0.06 µg/mL"
>>> assay_result("CC[C@H]1OC(=O)[C@H](C)[C@@H](O[C@H]2C[C@@](C)(OC)[C@@H](OC(=O)NCCc3ccccc3Cl)[C@H](C)O2)[C@H](C)[C@@H](O[C@@H]2O[C@H](C)C[C@H](N(C)C)[C@H]2O)[C@@](C)(O)C[C@@H](C)CN(C)[C@H](C)[C@@H](O)[C@]1(C)O")
"< 0.03 µg/mL"
>>> assay_result("CC[C@H]1OC(=O)[C@H](C)[C@@H](O[C@H]2C[C@@](C)(OC)[C@@H](OC(=O)NCc3ccc(F)cc3)[C@H](C)O2)[C@H](C)[C@@H](O[C@@H]2O[C@H](C)C[C@H](N(C)C)[C@H]2O)[C@@](C)(O)C[C@@H](C)CN(C)[C@H](C)[C@@H](O)[C@]1(C)O")
"< 0.03 µg/mL"
>>> assay_result("CCCCNC(=O)O[C@@H]1[C@@H](C)N(C)C[C@H](C)C[C@](C)(O)[C@H](O[C@@H]2O[C@H](C)C[C@H](N(C)C)[C@H]2O)[C@@H](C)[C@H](O[C@H]2C[C@@](C)(OC)[C@@H](OC(=O)NCCc3ccc(O)cc3)[C@H](C)O2)[C@@H](C)C(=O)O[C@H](CC)[C@@]1(C)O")
"< 0.03 µg/mL"
>>> assay_result("C=CCNC(=O)O[C@H]1[C@H](C)O[C@@H](O[C@H]2[C@H](C)[C@@H](O[C@@H]3O[C@H](C)C[C@H](N(C)C)[C@H]3O)[C@@](C)(O)C[C@@H](C)CN(C)[C@H](C)[C@H]3OC(=O)O[C@]3(C)[C@@H](CC)OC(=O)[C@@H]2C)C[C@@]1(C)OC")
"0.12 µg/mL"

Please look at the following molecule next.
Record summary for `CC[C@H]1OC(=O)[C@H](C)[C@@H](O[C@H]2C[C@@](C)(OC)[C@@H](OC(=O)NCCc3ccc(O)cc3)[C@H](C)O2)[C@H](C)[C@@H](O[C@@H]2O[C@H](C)C[C@H](N(C)C)[C@H]2O)[C@@](C)(O)C[C@@H](C)CN(C)[C@H](C)[C@@H](OC(=O)NCc2ccccc2)[C@]1(C)O` : reported MIC = < 0.03 µg/mL

---

System: Streptococcus pneumoniae
Assay: Antibacterial activity against erythromycin-susceptible Streptococcus pneumoniae ATCC 49619
This listing pairs molecules with measured MIC.
Return type: number; implicit unit µg/mL.

MIC measured on `CC[C@H]1OC(=O)[C@H](C)[C@@H](O[C@H]2C[C@@](C)(OC)[C@@H](OC(=O)NC3CCCCC3)[C@H](C)O2)[C@H](C)[C@@H](O[C@@H]2O[C@H](C)C[C@H](N(C)C)[C@H]2O)[C@@](C)(O)C[C@@H](C)CN(C)[C@H](C)[C@@H](O)[C@]1(C)O` = 0.12

Entry `CC[C@H]1OC(=O)[C@H](C)[C@@H](O[C@H]2C[C@@](C)(OC)[C@@H](OC(=O)NCc3ccc(OC)cc3)[C@H](C)O2)[C@H](C)[C@@H](O[C@@H]2O[C@H](C)C[C@H](N(C)C)[C@H]2O)[C@@](C)(O)C[C@@H](C)CN(C)[C@H](C)[C@@H](O)[C@]1(C)O` , MIC reported as 0.12

MIC reported for this molecule `CC[C@H]1OC(=O)[C@H](C)[C@@H](O[C@H]2C[C@@](C)(OC)[C@@H](OC(=O)NC(C)C)[C@H](C)O2)[C@H](C)[C@@H](O[C@@H]2O[C@H](C)C[C@H](N(C)C)[C@H]2O)[C@@](C)(O)C[C@@H](C)CN(C)[C@H](C)[C@@H](O)[C@]1(C)O` : 0.12

Looking up `CCCNC(=O)O[C@H]1[C@H](C)O[C@@H](O[C@H]2[C@H](C)[C@@H](O[C@@H]3O[C@H](C)C[C@H](N(C)C)[C@H]3O)[C@@](C)(O)C[C@@H](C)CN(C)[C@H](C)[C@@H](O)[C@](C)(O)[C@@H](CC)OC(=O)[C@@H]2C)C[C@@]1(C)OC` , I see its MIC listed as 0.12

Per the records, this molecule ( `CC[C@H]1OC(=O)[C@H](C)[C@@H](O[C@H]2C[C@@](C)(OC)[C@@H](OC(=O)NC3CCCCC3)[C@H](C)O2)[C@H](C)[C@@H](O[C@@H]2O[C@H](C)C[C@H](N(C)C)[C@H]2O)[C@@](C)(O)C[C@@H](C)CN(C)[C@H](C)[C@H]2OC(=O)O[C@@]21C` ) has MIC equal to 0.06

---

Tested on: Streptococcus pneumoniae
Assay: Antibacterial activity against erythromycin-susceptible Streptococcus pneumoniae ATCC 49619
Quantity: MIC

Field: example entries. Status: answers known.
>>> assay_result("CC[C@H]1OC(=O)[C@H](C)[C@@H](O[C@H]2C[C@@](C)(OC)[C@@H](OC(=O)NCc3ccccc3)[C@H](C)O2)[C@H](C)[C@@H](O[C@@H]2O[C@H](C)C[C@H](N(C)C)[C@H]2O)[C@@](C)(O)C[C@@H](C)CN(C)[C@H](C)[C@@H](O)[C@]1(C)O")
"< 0.03 µg/mL"
>>> assay_result("CCCCCNC(=O)O[C@@H]1[C@@H](C)N(C)C[C@H](C)C[C@](C)(O)[C@H](O[C@@H]2O[C@H](C)C[C@H](N(C)C)[C@H]2O)[C@@H](C)[C@H](O[C@H]2C[C@@](C)(OC)[C@@H](OC(=O)NCc3ccc(OC)cc3)[C@H](C)O2)[C@@H](C)C(=O)O[C@H](CC)[C@@]1(C)O")
"0.06 µg/mL"
>>> assay_result("CC[C@H]1OC(=O)[C@H](C)[C@@H](O[C@H]2C[C@@](C)(OC)[C@@H](O)[C@H](C)O2)[C@H](C)[C@@H](O[C@@H]2O[C@H](C)C[C@H](N(C)C)[C@H]2O)[C@](C)(O)C[C@@H](C)CN(C)[C@H](C)[C@@H](O)[C@]1(C)O [AZITHROMYCIN]")
"< 0.03 µg/mL"

Recorded MIC (molecule `CC[C@H]1OC(=O)[C@H](C)[C@@H](O[C@H]2C[C@@](C)(OC)[C@@H](OC(=O)NCCc3ccccc3Cl)[C@H](C)O2)[C@H](C)[C@@H](O[C@@H]2O[C@H](C)C[C@H](N(C)C)[C@H]2O)[C@@](C)(O)C[C@@H](C)CN(C)[C@H](C)[C@H]2OC(=O)O[C@@]21C` ): 0.06 µg/mL

In plain terms, `CC[C@H]1OC(=O)[C@H](C)[C@@H](O[C@H]2C[C@@](C)(OC)[C@@H](OC(=O)NCCc3ccc(O)cc3)[C@H](C)O2)[C@H](C)[C@@H](O[C@@H]2O[C@H](C)C[C@H](N(C)C)[C@H]2O)[C@@](C)(O)C[C@@H](C)CN(C)[C@H](C)[C@H]2OC(=O)O[C@@]21C` has a documented MIC of < 0.03 µg/mL

For reference, reported MIC for `CCCCCNC(=O)O[C@@H]1[C@@H](C)N(C)C[C@H](C)C[C@](C)(O)[C@H](O[C@@H]2O[C@H](C)C[C@H](N(C)C)[C@H]2O)[C@@H](C)[C@H](O[C@H]2C[C@@](C)(OC)[C@@H](OC(=O)NCCc3ccccc3Cl)[C@H](C)O2)[C@@H](C)C(=O)O[C@H](CC)[C@@]1(C)O` stands at < 0.03 µg/mL

Given item `CC[C@H]1OC(=O)[C@H](C)[C@@H](O[C@H]2C[C@@](C)(OC)[C@@H](OC(=O)NCc3ccccc3)[C@H](C)O2)[C@H](C)[C@@H](O[C@@H]2O[C@H](C)C[C@H](N(C)C)[C@H]2O)[C@@](C)(O)C[C@@H](C)CN(C)[C@H](C)[C@H]2OC(=O)O[C@@]21C` , the value recorded as its MIC is < 0.03 µg/mL
